The origin of these recorded values is PubChem BioAssay (NCI).

test system: SF-295 CNS; assay: NCI tumour cell line growth inhibition, 48 h
result.type: TGI

Example entries and their recorded answers appear below.
O=C1c2cscc2C(=O)C1(O)O
> 100 µM
COc1ccc2oc(=O)c3c(c2c1C)OC(C)(C)C=C3
> 100 µM
CCOC(=O)CCC(C(=O)OCC)n1nnc2ccc(Nc3c(C)[n+]([O-])c4cc(Cl)ccc4[n+]3[O-])cc21 (stereo unspecified)
> 100 µM
C[n+]1ccc(-c2cc[n+](C)cc2)cc1
> 37.6 µM
CC1=CC2=C(C(N)=O)C(=O)OC2(C)C(c2ccccc2)C1 (stereo unspecified)
> 100 µM

Now look at this entry.
Task: Item under review: O=C(Nc1ccccc1)NS(=O)(=O)c1ccc(N2N=C3c4ccccc4CC3C2c2ccccn2)cc1 (stereo unspecified) . Reported TGI?
Result: 50 µM

* * *

test system: UO-31 renal; assay: NCI tumour cell line growth inhibition, 48 h; in the data active = GI50 below about 0.43 µM; inactive = the rest
Returns: one label drawn from T for active, F for inactive

Task: Each compound tested received a call. Report the one for CCOC(=O)Cn1c(C)c(/C=N/NC(=O)c2cc3c(ccc4ccccc43)o2)c2ccccc21 .
Result: F

* * *

test system: OVCAR-5 ovarian; experiment: NCI tumour cell line growth inhibition, 48 h
result.type: GI50

CCN(CC)CCCOc1cc(O)c2c(=O)cc(-c3ccccc3)oc2c1
13 µM
COc1ccc(/C=C/C(=O)c2ccc3cc(OC)c(OC)cc3c2)cc1OC
4.81 µM
CCOC(=O)Cn1c(C)c(/C=N/NC(=O)c2cc3c(ccc4ccccc43)o2)c2ccccc21
0.872 µM
CC1(C)CC(OCCCC[P+](c2ccccc2)(c2ccccc2)c2ccccc2)CC(C)(C)N1O
0.481 µM
Nc1c(C(=O)c2cccc(C#CCN3CCOCC3)c2)cnn1-c1ccc(F)cc1
> 25 µM
C[C@]12CCC3c4ccc(O)cc4CCC3C1Cc1ccc(O)cc12 (stereo partly specified)
14.5 µM
N#CSCc1c(Cl)cccc1Cl
7.41 µM
COc1c(NC(=O)CC(C)=O)[c]([Hg][O]C(C)=O)c(OC)c(Cl)[c]1[Hg][O]C(C)=O
25.7 µM

Task: GI50 lookup needed for O=C(O)C[O][Sb][O]CC(=O)O , thanks.
Result: > 100 µM

Task: What about this compound? O=C(NNc1ccccc1)OCc1ccccc1
Result: 8.05 µM

Task: # iterate: O=Cc1ccc(Oc2c3ccccc3nc3occc23)cc1
Result: 18.6 µM

* * *

system: HL-60(TB) leukemia; test: NCI tumour cell line growth inhibition, 48 h; in the data active = GI50 below about 0.43 µM; inactive = the rest
Answer with one of the outcomes given here: t (active), f (inactive)

Recorded results for 7 molecules are shown here.
Cc1ncc(C(=O)Nc2ccc(CN3CCN(C)CC3)c(C(F)(F)F)c2)cc1C#Cc1cnc(N)c2ncccc12
t
CO[C@H]1C[C@@H]2CC[C@@H](C)[C@@](O)(O2)C(=O)C(=O)N2CCCC[C@H]2C(=O)O[C@H]([C@H](C)C[C@@H]2CC[C@@H](OP(C)(C)=O)[C@H](OC)C2)CC(=O)[C@H](C)/C=C(\C)[C@@H](O)[C@@H](OC)C(=O)[C@H](C)C[C@H](C)/C=C/C=C/C=C/1C
f
CC(=O)OC1CCC2(C)C(CCC3C4CC=C(C(C)=O)C4(C)OC(=O)CC32)C1 (stereo not drawn)
f
C#C[C@@]1(O)[C@@H](CO)O[C@@H](n2ccc3c(N)ncnc32)[C@@H]1O
f
COc1cccc(-n2ncc3c(N/N=C/c4ccc(S(C)(=O)=O)cc4)ncnc32)c1
f
CC1(C)N=C(N)N=C(N)N1c1cccc(CCCCc2ccccc2)c1
t
Fc1ccc(-c2nnc3sc(COc4ccccc4Cl)nn23)cc1Cl
f

# input for lookup
Task: Short answer needed: outcome of this test for CO/N=C(/COc1c(-c2ccccc2)oc2ccccc2c1=O)c1ccc(OC)cc1 ?
Result: f

* * *

Documented TGI across a set of molecules
test system: 786-0 renal; test: NCI tumour cell line growth inhibition, 48 h

// below: answered molecules
COc1ccc(C2=Nn3c(nc4sc(-c5ccccc5)cc4c3=O)SC2)cc1
> 100 µM
Cc1nc(-c2cc3c(ccc4ccccc43)oc2=O)cc2c1c(=O)oc1ccc3ccccc3c12
> 100 µM

Task: I am curious: what TGI value has been reported for NNc1ccccc1Cl ?
Result: > 100 µM

* * *

system: SK-MEL-2 melanoma; test: NCI tumour cell line growth inhibition, 48 h
Documented TGI across a set of molecules

Worked set:
Cc1cc(=O)oc2c1cc(OCC(=O)OCCN1CCCCC1)c1occ(C)c12
> 100 µM
CC(C)(C)OC(=O)NC1CCC[C@H]1O (stereo partly drawn)
> 100 µM

Task: Short answer please: TGI, SK-MEL-2 melanoma, entry c1ccc2sc(SCN(C3CCCCC3)C3CCCCC3)nc2c1
Result: > 100 µM

* * *

tested on: UACC-62 melanoma; experiment: NCI tumour cell line growth inhibition, 48 h
result.type: TGI

Worked cases, answers included:
Cc1cc(=O)oc2c1cc(OCC(=O)OCCN1CCCCC1)c1occ(C)c12
> 100 µM
COc1cc(C(=O)C/C(CCC(=O)Nc2ccc(Cl)cc2Cl)=N/NC(=O)C(N)=O)ccc1O
> 100 µM
NC(=S)NNC(=O)CCC(=O)Nc1ccc(Cl)cc1Cl
> 100 µM
O=C(O)c1ccc(NCc2nc3cc4ccccc4cc3[nH]2)cc1
> 100 µM
Nc1nc(N)c2c(ccc3nccc32)[nH]1
17.6 µM
CC1(O)CC23CC1CCC2(C)C12CCCC(C)(C(=O)O1)C2CC3O (configuration not stated)
> 100 µM
O=Cc1ccc(Oc2c3ccccc3nc3occc23)cc1
30.4 µM
C/C1=C\C/C=C(\C)[C@H]2CC(CC/C(C)=C/CC1)[C@@](C)(CO)O2
> 100 µM

Task: What TGI value was documented for this molecule, COc1cccc(-n2ncc3c(N/N=C/c4ccc(S(C)(=O)=O)cc4)ncnc32)c1 ?
Result: > 16.9 µM

Task: Try O=C1C[C@@H](Sc2ccccc2)C2(OCCO2)[C@H]2ON3CCC[C@@H]3[C@@H]12 next.
Result: 24.3 µM

Task: Can you check CC(=O)OC1CCC2(C)C(CCC3C4CC=C(C(C)=O)C4(C)OC(=O)CC32)C1 (configuration not stated) next?
Result: 3.53 µM

Task: Input COc1ccc(OC)c(C#Cc2ccc(OC)c(C(=O)NCCc3ccc(F)cc3)c2)c1
Result: > 100 µM

* * *

tested on: NCI-H522 lung; experiment: NCI tumour cell line growth inhibition, 48 h; in the data active = GI50 below about 0.43 µM; inactive = the rest
// classify into class 1 for active, class 0 for inactive

Some solved entries appear below for comparison.
O=c1oc2ccc(Cl)cc2c(=O)n1-c1cc(C(F)(F)F)cc(C(F)(F)F)c1
class 1
CO/N=C(/COc1c(-c2ccccc2)oc2ccccc2c1=O)c1ccc(OC)cc1
class 0

For the next question, use this molecule.
Task: Look up the recorded call for CNNC(=N\S(=O)(=O)c1cc(C(=O)Nc2ccc(Cl)cc2)c(Cl)cc1SCc1ccccc1)/N=C/c1ccc([N+](=O)[O-])s1 in this test.
Result: class 0

* * *

# TGI values compiled below
system: RXF 393 renal; assay: NCI tumour cell line growth inhibition, 48 h
Where a SMILES comes first, the peptide text is derived from it. [ ]: non-standard residue; d: D form. NMeY = CN[C@@H](Cc1ccc(O)cc1)C(=O)O; dNMeF = CN[C@H](Cc1ccccc1)C(=O)O; Sar = CNCC(=O)O
Answer format: numeric, µM implied, no suffix.

Nc1nc(N)c2c(ccc3nccc32)[nH]1
17.8
ICCC(c1ccccc1)(c1ccccc1)c1ccccc1
22.8
CC[C@H](C)[C@@H]1NC(=O)[C@H](Cc2ccc(O)cc2)N(C)C(=O)[C@H](Cc2ccccc2)NC(=O)CN(C)C(=O)[C@@H]2CCCN2C(=O)[C@@H](Cc2ccccc2)N(C)C(=O)[C@H](CC(C)C)NC1=O (cyclo(F[NMeY]IL[dNMeF]P[Sar]))
3.27

Task: // query TGI value for entry O=C(NCCNCCNCCNC(=O)c1cc(-c2ccccc2)nc2ccccc12)c1cc(-c2ccccc2)nc2ccccc12
Result: 4.34

Task: And the next one, COc1cc(Cn2ccc3c2-c2oncc2CC3)cc(OC)c1 ?
Result: 60

Task: Now the same for Cc1ncc(C(=O)Nc2ccc(CN3CCN(C)CC3)c(C(F)(F)F)c2)cc1C#Cc1cnc(N)c2ncccc12
Result: 1.49

Task: Also need CC(=O)OC1CCC2(C)C(CCC3C4CC=C(C(C)=O)C4(C)OC(=O)CC32)C1 (centres undefined) , thanks.
Result: 2.51

Task: Lookup COc1ccc([C@H]2C=C(c3cc(F)c(Cl)cc3Cl)NC(=S)N2)cc1
Result: 79.9

Task: Okay, and Nc1ccc2cc3[nH]c4cc(N)ccc4c3nc2c1 ?
Result: 1.98

Task: Continue with CCCNC(C#N)c1ccc(OCCCCCCCCCCOc2ccc(C(C#N)NCCC)cc2)cc1 (centres undefined)
Result: 65.1

Task: Note, next up: O=C(O)c1nc2ccccc2nc1Nc1ccc(F)cc1
Result: 51.8
